Sourced from the supplement of paper PMC10567573

# protein stability index per record follows
B1: INTS3 (parent)
chain: FSDDEEDLNSKGKKREFRFHPIKE

Variants of: B1
Assay: protein stability index of a GFP-peptide fusion (GPS, HEK-293T) (PSI 1-6); higher = more stable;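 note: lentivirally expressed fusions sorted by FACS into six bins by GFP to DsRed ratio, PSI derived from sequencing read proportions per bin multiplied by bin number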
Conditions: c terminus: a fixed tail appended

mutant: K11V
protein stability index: 2.89

Prompt line: Name the recorded protein stability index of the item S10V in your answer.
Response line: 2.75

Prompt line: For the variant D3M , give its measured protein stability index value.
Response line: 2.55

Prompt line: Name the recorded protein stability index of the variant listed here: K11Q
Response line: 3.62

Prompt line: Identify measured protein stability index associated with H20Y
Response line: 4.51

Prompt line: Retrieve protein stability index measured for S10K and print it.
Response line: 2.38

Prompt line: Supply measured protein stability index of K14W in your reply.
Response line: 1.53

Prompt line: Give the reported value of protein stability index for this record: G12H
Response line: 2.58

Prompt line: Hello, please tell me recorded protein stability index for this one: K23I
Response line: 2.93

Prompt line: # return recorded protein stability index for entry N9I
Response line: 2.06

Prompt line: Recall and state the measured protein stability index for D7M .
Response line: 2.59

Prompt line: Name the recorded protein stability index of the item D3A in your answer.
Response line: 2.19

Prompt line: Tell us which protein stability index value is on record for L8G
Response line: 3.29

Prompt line: Respond only with protein stability index recorded for D7K
Response line: 2.04

Prompt line: Specify protein stability index for P21S and stop.
Response line: 3.88
